The reported measurements were obtained from ChEMBL document CHEMBL3603763.

biological target: DcpS (m7GpppX diphosphatase) (Homo sapiens); assay: Stability of the compound assessed as human DcpS-mediated compound hydrolysis at 40 uM after 180 mins by HPLC analysis; type: ADME; details: human DcpS enzyme (m7GpppX diphosphatase), read-out: Drug degradation
Sequence (Q96C86 whole entry): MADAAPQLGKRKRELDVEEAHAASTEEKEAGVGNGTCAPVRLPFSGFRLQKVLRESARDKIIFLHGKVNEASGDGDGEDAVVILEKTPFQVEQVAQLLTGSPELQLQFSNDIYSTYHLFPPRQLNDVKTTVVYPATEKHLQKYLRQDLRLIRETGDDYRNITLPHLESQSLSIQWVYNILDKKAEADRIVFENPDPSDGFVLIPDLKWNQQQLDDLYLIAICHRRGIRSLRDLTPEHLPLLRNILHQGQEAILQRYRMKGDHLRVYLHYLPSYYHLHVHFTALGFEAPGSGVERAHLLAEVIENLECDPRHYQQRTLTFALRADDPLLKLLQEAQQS
OBSERVABLE: metabolised at 3 h, 40 µM

structure_smiles=B[P@@](=O)(OC[C@H]1O[C@@H](n2c[n+](C)c3c(O)nc(N)nc32)[C@H](O)[C@@H]1O)OP(=O)([O-])OP(=O)(O)O.N.N.N.N readout_value=19%
structure_smiles=B[P@@](=O)(OC[C@H]1O[C@@H](n2c[n+](C)c3c(O)nc(N)nc32)[C@H](O)[C@@H]1O)OP(=O)([O-])OP(=O)([O-])O[P@](B)(=O)OC[C@H]1O[C@@H](n2c[n+](C)c3c(O)nc(N)nc32)[C@H](O)[C@@H]1O readout_value=81%

###

target: Eukaryotic translation initiation factor 4E (Oryctolagus cuniculus); test: Inhibition of eIF4E-mediated translation in flexi rabbit reticulocyte lysate using luciferase mRNA treated simultaneously with mRNA by luminescence based luciferase assay
pIC50: −log10 of the molar value.
Entries and their pIC50 values follow.
OBSERVABLE: pIC50

structure_smiles=B[P@@](=O)(OC[C@H]1O[C@@H](n2c[n+](C)c3c(O)nc(N)nc32)[C@H](O)[C@@H]1O)OP(=O)([O-])OP(=O)(O)O.N.N.N.N readout_value=5.92
structure_smiles=C[n+]1cn([C@@H]2O[C@H](CO[P@](=O)(S)OP(=O)([O-])CP(=O)(O)O)[C@@H](O)[C@H]2O)c2nc(N)nc(O)c21.N.N.N.N readout_value=5.83
structure_smiles=C[n+]1cn([C@@H]2O[C@H](CO[P@@](=O)(S)OP(=O)([O-])OP(=O)(O)O)[C@@H](O)[C@H]2O)c2nc(N)nc(O)c21.N.N.N.N readout_value=5.84
structure_smiles=B[P@](=O)(OC[C@H]1O[C@@H](n2c[n+](C)c3c(O)nc(N)nc32)[C@H](O)[C@@H]1O)OP(=O)([O-])OP(=O)(O)O.N.N.N.N readout_value=5.39

###

biological target: Eukaryotic translation initiation factor 4E (Oryctolagus cuniculus, UniProt P29338); test: Inhibition of eIF4E-mediated translation in flexi rabbit reticulocyte lysate using luciferase mRNA preincubated for 60 mins before mRNA addition by luminescence based luciferase assay
Sequence (P29338 whole entry): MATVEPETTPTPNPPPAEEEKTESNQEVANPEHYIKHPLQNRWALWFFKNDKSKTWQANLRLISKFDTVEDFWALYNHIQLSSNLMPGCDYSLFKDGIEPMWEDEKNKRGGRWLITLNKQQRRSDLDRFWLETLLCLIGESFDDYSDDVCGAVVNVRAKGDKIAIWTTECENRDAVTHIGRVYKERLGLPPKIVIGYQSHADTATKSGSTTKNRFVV
Entries and their IC50 values follow.
OBSERVABLE: IC50 (nM)

structure_smiles=B[P@](=O)(OC[C@H]1O[C@@H](n2c[n+](C)c3c(O)nc(N)nc32)[C@H](O)[C@@H]1O)OP(=O)([O-])CP(=O)(O)O.N.N.N.N observable=IC50 uom=nM readout_value=3220
structure_smiles=C[n+]1cn([C@@H]2O[C@H](COP(=O)(O)OP(=O)([O-])OP(=O)(O)OC[C@H]3O[C@@H](n4cnc5c(=O)[nH]c(N)nc54)[C@H](O)[C@@H]3O)[C@@H](O)[C@H]2O)c2nc(N)[nH]c(=O)c21 observable=IC50 uom=nM readout_value=25000
structure_smiles=B[P@](=O)(OC[C@H]1O[C@@H](n2c[n+](C)c3c(O)nc(N)nc32)[C@H](O)[C@@H]1O)OP(=O)([O-])OP(=O)(O)O.N.N.N.N observable=IC50 uom=nM readout_value=3260
structure_smiles=C[n+]1cn([C@@H]2O[C@H](CO[P@](=O)(S)OP(=O)([O-])CP(=O)(O)O)[C@@H](O)[C@H]2O)c2nc(N)nc(O)c21.N.N.N.N observable=IC50 uom=nM readout_value=1240
structure_smiles=C[n+]1cn([C@@H]2O[C@H](CO[P@@](=O)(S)OP(=O)([O-])CP(=O)(O)O)[C@@H](O)[C@H]2O)c2nc(N)nc(O)c21.N.N.N.N observable=IC50 uom=nM readout_value=2610
structure_smiles=B[P@@](=O)(OC[C@H]1O[C@@H](n2c[n+](C)c3c(O)nc(N)nc32)[C@H](O)[C@@H]1O)OP(=O)([O-])CP(=O)(O)O.N.N.N.N observable=IC50 uom=nM readout_value=3260
structure_smiles=B[P@@](=O)(OC[C@H]1O[C@@H](n2c[n+](C)c3c(O)nc(N)nc32)[C@H](O)[C@@H]1O)OP(=O)([O-])OP(=O)(O)O.N.N.N.N observable=IC50 uom=nM readout_value=1280
structure_smiles=C[n+]1cn([C@@H]2O[C@H](CO[P@@](=O)(S)OP(=O)([O-])OP(=O)(O)O)[C@@H](O)[C@H]2O)c2nc(N)nc(O)c21.N.N.N.N observable=IC50 uom=nM readout_value=1300
